assay: CCTE_Shafer_MEA_acute_per_burst_spike_number_mean: CCTE's Neural Acute Assay for Average Number of Spikes Per Burst, Shafer Lab (AID 2284015);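 note: hits are decreases in mean spikes per burst versus baseline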
Activity calls are given as the source filed them. Rule for the calls: active = hit-call score of the fitted dose curve at least 0.9, where 1 is the maximum; inactive = score below 0.9.
Outcome field: choose from active, inactive

Solved entries (count: 6):
>  <compound>
CC(C)C1(C)N=C(c2ncccc2C(=O)O)NC1=O (stereo not given)

>  <classification>
inactive

$$$$
>  <compound>
N#Cc1c[nH]cc1-c1cccc2c1OC(F)(F)O2

>  <classification>
active

$$$$
>  <compound>
CO/N=C(/C1=NOCCO1)c1ccccc1Oc1ncnc(Oc2ccccc2Cl)c1F

>  <classification>
active

$$$$
>  <compound>
O=C(Nc1ccccc1-c1ccc(Cl)cc1)c1cccnc1Cl

>  <classification>
inactive

$$$$
>  <compound>
N#CN=C1SCCN1Cc1ccc(Cl)nc1

>  <classification>
inactive

$$$$
>  <compound>
CCCCC(O)(Cn1cncn1)c1ccc(Cl)cc1Cl (stereo not given)

>  <classification>
inactive

$$$$

For CC(C)N1C(=O)c2ccccc2NS1(=O)=O , what call appears in the results of this test?
inactive

For Nc1c(Cl)c(F)nc(OCC(=O)O)c1Cl , what call appears in the results of this test?
inactive

For CCCN(CC)CC1COC2(CCC(C(C)(C)C)CC2)O1 (stereo not given) , what call appears in the results of this test?
inactive

For OC(c1ccc(Cl)cc1)(c1ccc(Cl)cc1)C(Cl)(Cl)Cl , what call appears in the results of this test?
inactive

meta.source: PubChem BioAssay (EPA / NIEHS)
